test protocol: Inhibition of Ribosomal protein S6 kinase
readout type: IC50 (nM)

Please review the following examples before continuing.
| structure notation | IC50 [nM] |
| --- | --- |
| CO[C@H]1[C@@H](N(C)C(=O)c2ccc(C(=O)O)cc2)C[C@@H]2O[C@@]1(C)n1c3ccccc3c3c4c(c5c6ccccc6n2c5c31)C(=O)NC4 | 100 |
| CO[C@H]1[C@@H]([N+](C)(C)C)C[C@@H]2O[C@@]1(C)n1c3ccccc3c3c4c(c5c6ccccc6n2c5c31)C(=O)NC4 | 50 |

(1) CO[C@H]1[C@@H](N(C)C(=O)c2cc([N+](=O)[O-])cc([N+](=O)[O-])c2)C[C@@H]2O[C@@]1(C)n1c3ccccc3c3c4c(c5c6ccccc6n2c5c31)C(=O)NC4
(2) CO[C@H]1[C@@H](N(C)C(=O)C(F)(F)F)C[C@@H]2O[C@@]1(C)n1c3ccccc3c3c4c(c5c6ccccc6n2c5c31)C(=O)NC4
Prompt line: Hey, between 1 and 2 which has a smaller measured IC50? Lab log: write the label of the selected item as the result.
Response line: 2
